Biological target: ADAM8 (Homo sapiens, UniProt P78325)
Construct: FLAG (C); made in house; host or cells: Sf9 insect cells (baculovirus, pFastBac1)
Sequence (P78325 200-400 limits assumed): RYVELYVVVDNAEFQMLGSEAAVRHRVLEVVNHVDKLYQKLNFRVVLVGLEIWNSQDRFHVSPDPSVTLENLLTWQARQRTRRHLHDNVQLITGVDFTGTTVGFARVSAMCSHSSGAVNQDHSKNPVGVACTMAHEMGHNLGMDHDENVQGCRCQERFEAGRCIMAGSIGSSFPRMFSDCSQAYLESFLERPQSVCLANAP
Test: FRET peptide substrate screening, ADAM8
Format: biochemical
Set-up: key: from one star (*) to five stars (*****) to indicate weaker to more potent substrates respectively; from one star (*) to five stars (*****) to indicate weaker to more potent substrates respectively; from one star (*) to five stars (*****) to indicate weaker to more potent substrates respectively; from one star (*) to five stars (*****) to indicate weaker to more potent substrates respectively; (—) = no detectable activity
Settings: FRET peptide 20 uM, room temperature
From the text: Forty nine different peptides were synthesized for testing protease activity. […] In order to use the principle of fluorescence resonance energy transfer, or FRET, for the assay, the peptides were labelled at the C-terminus with Dabcyl and at the N-terminus with Edans. Thus cleavage of the peptides can be monitored by the increase in Edans fluorescence at 460 nm (excitation 360 nm) as a result of the decrease in proximity of the Dabcyl quencher. […]
TEST_READOUT: Relative proteolytic activity ADAM8

Example results:
# SUBSTANCE, MEASURED_TARGET, TEST_READOUT, MEAS_VALUE
rows = [
    ("X-RVRRALPS-Z ({Edans‑E}-RVRRALPS-{dabcyl‑K}) [AD8P2, FRET peptide substrate; X = Edans-E; Z = dabcyl-K]", "ADAM8 (Homo sapiens, UniProt P78325)", "Relative proteolytic activity ADAM8", "***"),
    ("X-RFAQAQQQLP-Z ({Edans‑E}-RFAQAQQQLP-{dabcyl‑K}) [CD27L, FRET peptide substrate; X = Edans-E; Z = dabcyl-K]", "ADAM8 (Homo sapiens, UniProt P78325)", "Relative proteolytic activity ADAM8", "****"),
    ("Z-RPLGLAR-X ({dabcyl‑K}-RPLGLAR-{Edans‑E}) [Mat, FRET peptide substrate; X = Edans-E; Z = dabcyl-K]", "ADAM8 (Homo sapiens, UniProt P78325)", "Relative proteolytic activity ADAM8", "***"),
    ("Z-RGVVNASSRLAK-X ({dabcyl‑K}-RGVVNASSRLAK-{Edans‑E}) [KAS-1, FRET peptide substrate; X = Edans-E; Z = dabcyl-K]", "ADAM8 (Homo sapiens, UniProt P78325)", "Relative proteolytic activity ADAM8", "***"),
    ("X-PPVAASSLRN-Z ({Edans‑E}-PPVAASSLRN-{dabcyl‑K}) [KL1, FRET peptide substrate; X = Edans-E; Z = dabcyl-K]", "ADAM8 (Homo sapiens, UniProt P78325)", "Relative proteolytic activity ADAM8", "***"),
]

Would you kindly look at the next entry?
Prompt: Dear colleague, I am looking for the recorded Relative proteolytic activity ADAM8 of the following substance: X-KPAAFFRL-Z ({Edans‑E}-KPAAFFRL-{dabcyl‑K}) [CatE, FRET peptide substrate; X = Edans-E; Z = dabcyl-K]
Completion: *****
